test system: HEK-293T; assay: Multiplex assay against HEK293T; assay type: toxicity, cell-based; conditions: human, 24 h, 1 µM, compound concentration 1 uM, replicate 2
Please provide measured Population Mitochondria Different-Phenotype (%) for the entries that follow.

CC1=C(C(=O)Nc2cc3cn[nH]c3cc2F)C(c2ccc(C(F)(F)F)cc2)CC(=O)N1 (stereo not drawn) = 8%
COc1ccc(-c2ccc3ncc4c(c3c2)n(-c2ccc(N3CCNCC3)c(C(F)(F)F)c2)c(=O)n4C)cn1.O=C(O)/C=C\C(=O)O [BGT-226] = 92%
C[C@]12CC[C@@H]3c4ccc(O)cc4CC[C@H]3[C@@H]1CC[C@@H]2O [ESTRADIOL] = 6%
O=c1cc(N2CCOCC2)oc2c(-c3cccc4c3sc3ccccc34)cccc12 = 22%
CC(C)c1noc(N2CCC(COc3ccc(-c4ccc(S(C)(=O)=O)cc4)nc3)CC2)n1 [GSK-1292263] = 14%

Batch request: Population Mitochondria Different-Phenotype (%) for each of the following compounds.
1. CC(C)Oc1ccccc1C(=O)Nc1ccccc1C(=O)Nc1cccc(S(=O)(=O)C(F)(F)F)c1
2. Cc1c[nH]c2nccc(Oc3c(F)cc(Nc4cc(Cl)nc(N)n4)cc3F)c12 [BAY-549]
3. COC(=O)C1=C(C)NC(C)=C(C(=O)OCCCN2CCC(c3ccccc3)(c3ccccc3)CC2)[C@H]1c1cccc([N+](=O)[O-])c1 [NIGULDIPINE]

Output:
66%
10%
100%
